Target: T1, human amylin-3(a) receptor (human, UniProt P30988 25-474; O60896 24-148)
T1 sequence (looked up) 1: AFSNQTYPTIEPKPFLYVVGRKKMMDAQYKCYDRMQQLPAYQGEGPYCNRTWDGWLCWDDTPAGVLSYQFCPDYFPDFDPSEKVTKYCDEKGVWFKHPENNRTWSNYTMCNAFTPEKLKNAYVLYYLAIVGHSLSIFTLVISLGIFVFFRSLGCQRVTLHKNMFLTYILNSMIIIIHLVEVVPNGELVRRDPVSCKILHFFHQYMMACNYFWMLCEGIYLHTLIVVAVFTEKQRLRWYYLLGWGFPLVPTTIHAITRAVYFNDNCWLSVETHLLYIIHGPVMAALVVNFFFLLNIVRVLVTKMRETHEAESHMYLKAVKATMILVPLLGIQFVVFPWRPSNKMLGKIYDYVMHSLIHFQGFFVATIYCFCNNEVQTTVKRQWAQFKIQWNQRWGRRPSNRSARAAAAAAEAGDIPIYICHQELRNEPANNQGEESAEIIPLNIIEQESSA
T1 sequence (looked up) 2: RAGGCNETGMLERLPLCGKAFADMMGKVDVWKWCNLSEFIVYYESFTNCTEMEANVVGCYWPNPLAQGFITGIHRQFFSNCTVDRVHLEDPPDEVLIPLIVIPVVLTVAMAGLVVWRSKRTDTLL
Assay: cell-based or functional assay
Numbered stars: 1 amine (or outer) side, 2 acyl side, 3 side chain; on linkers, the order of the positions; unused ones are H or OH. Square brackets hold non-standard residues; d marks the D form. Side chains are listed from the residue outwards. * marks the point of attachment. Chem. 22 = C20 diacid gamma-Glu, O=C(O)CCCCCCCCCCCCCCCCCCC(=O)N[C@@H](CCC(=O)*)C(=O)O; C20 diacid = O=C(O)CCCCCCCCCCCCCCCCCCC(=O)*; C18 diacid = O=C(O)CCCCCCCCCCCCCCCCC(=O)*; γGlu = O=C(O)[C@H](CCC(=O)[*:2])N[*:1]; Chem. 28 = not defined here; Chem. 29 = not defined here; AEEA = NCCOCCOCC(=O)O; Aib = CC(C)(N)C(=O)O
For each entry below, report its hAMYR3 Potency, no HSA, EC50 [pM] value.
Numbers only, in pM.

BINDER: Compound 56 (reading uncertain) peptide: Y[Aib]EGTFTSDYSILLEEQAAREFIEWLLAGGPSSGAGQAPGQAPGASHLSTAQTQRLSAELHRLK(Chem. 28)TLPRTETGSGSP-NH2
VALUE MEASURED: 2.36

BINDER: Compound 107 (reading uncertain) peptide: H[Aib]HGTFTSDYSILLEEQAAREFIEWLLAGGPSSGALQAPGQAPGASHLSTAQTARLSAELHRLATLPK(Chem. 28)TETGSGSP-NH2
VALUE MEASURED: 3.07

BINDER: Compound 110 (not fully specified) peptide: Y[Aib]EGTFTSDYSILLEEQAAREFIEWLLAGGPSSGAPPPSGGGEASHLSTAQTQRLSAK([AEEA-AEEA-γGlu-C20 diacid])LHRLATLPRTETGSGSP-NH2
VALUE MEASURED: 3.27

BINDER: Compound 43 (reading uncertain) peptide: H[Aib]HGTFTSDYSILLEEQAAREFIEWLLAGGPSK(Chem. 28)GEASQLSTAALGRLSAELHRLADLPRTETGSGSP-NH2
VALUE MEASURED: 3.13

BINDER: Compound 67 (peptide) peptide: Y[Aib]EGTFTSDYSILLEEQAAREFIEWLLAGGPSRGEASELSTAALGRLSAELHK([AEEA-AEEA-γGlu-C18 diacid])LATLPRTETGSGSP-NH2
VALUE MEASURED: 3.66

BINDER: Compound 18 (reading uncertain) peptide: Y[Aib]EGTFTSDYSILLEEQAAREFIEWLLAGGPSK(Chem. 29)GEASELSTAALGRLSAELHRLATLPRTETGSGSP-NH2
VALUE MEASURED: 3.93

Parameters: items (list). Returns: hAMYR3 Potency, no HSA, EC50 [pM] for each item.
1. Compound 55 (reading uncertain) peptide: Y[Aib]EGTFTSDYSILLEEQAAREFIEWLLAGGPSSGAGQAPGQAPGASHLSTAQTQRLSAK(Chem. 28)LHRLATLPRTETGSGSP-NH2
2. Compound 42 (peptide) peptide: Y[Aib]EGTFTSDYSILLEEQAAREFIEWLLAGGPSSK(Chem. 22)APPPSGGGEASELSTAALGRLSAELHRLATLPRTETGSGSP-NH2

OUTPUT:
2.22
3.42
